From: ChEMBL document CHEMBL3046143

Test system: Root
Experiment: Drug uptake in Solanum lycopersicum (tomato) root after 60 to 151 days post germination by GC-ECD analysis
Format: ADME
Counter-ions that a name gives are not always drawn.
// label = yes (1) if Drug uptake is not less than 1 ng/g, otherwise no (0)

{"columns": ["compound", "target_entity", "assigned_label"],
 "data": [
  ["Cl[C@H]1[C@H](Cl)[C@H](Cl)[C@@H](Cl)[C@H](Cl)[C@H]1Cl", "Root", "yes (1)"],
  ["O=S1(=O)OCC2C(CO1)C1(Cl)C(Cl)=C(Cl)C2(Cl)C1(Cl)Cl (centres undefined) [ENDOSULFAN SULFATE]", "Root", "yes (1)"],
  ["O=S1OC[C@@H]2[C@H](CO1)[C@@]1(Cl)C(Cl)=C(Cl)[C@]2(Cl)C1(Cl)Cl (stereo partly drawn) [ALPHA-ENDOSULFAN]", "Root", "no (0)"],
  ["Clc1ccc(C(c2ccc(Cl)cc2)C(Cl)(Cl)Cl)cc1", "Root", "yes (1)"],
  ["Cl[C@H]1[C@H](Cl)[C@@H](Cl)[C@H](Cl)[C@@H](Cl)[C@H]1Cl", "Root", "yes (1)"],
  ["Cl[C@H]1[C@H](Cl)[C@@H](Cl)[C@@H](Cl)[C@H](Cl)[C@H]1Cl", "Root", "yes (1)"],
  ["Cl[C@H]1[C@H](Cl)[C@@H](Cl)[C@H](Cl)[C@@H](Cl)[C@@H]1Cl", "Root", "yes (1)"],
  ["O=S1OC[C@@H]2[C@H](CO1)[C@]1(Cl)C(Cl)=C(Cl)[C@]2(Cl)C1(Cl)Cl (stereo partly drawn) [BETA-ENDOSULFAN]", "Root", "no (0)"],
  ["ClC(Cl)=C(c1ccc(Cl)cc1)c1ccc(Cl)cc1", "Root", "yes (1)"]
]}
